Source: paper PMC8161026

test system: NCI-H23; test: cells; conditions: Homo sapiens, NCI-H23, 48 h, read-out: LC50
Catalogue of CC50 values

> print(dat)
                                   molecule  quantity.kind  measured
1  O=C1/C(=C/C(Cl)=C/c2ccc([N+](=O)[O-])cc2)SC(=S)N1/N=C\C(Cl)=C\c1ccc([N+](=O)[O-])cc1 [Compound 2c]           CC50   60.3 µM

Proceeding to the next molecule to report its CC50.
Exercise: Look up CC50 with NCI-H23 for this molecule: O=C(O)C(Cc1ccccc1)N1C(=O)/C(=C/C(Cl)=C/c2ccc([N+](=O)[O-])cc2)SC1=S (centres unmarked) [Compound 2j]
Key: > 100 µM

====

tested on: Colon Cancer subpanel; assay: cells; details: Homo sapiens, read-out: MG_MID, LC50
quantity.kind: CC50 (µM)
Value expressed in µM; do not type the unit.

These solved cases illustrate the format of a correct answer.
> print(dat)
                                   molecule  measured
1  O=C1/C(=C/C(Cl)=C/c2ccc([N+](=O)[O-])cc2)SC(=S)N1c1ccc(O)cc1      84.5
2  O=C1/C(=C/C(Cl)=C/c2ccc([N+](=O)[O-])cc2)SC(=S)N1/N=C\C(Cl)=C\c1ccc([N+](=O)[O-])cc1      77.8
3  O=C(O)C(Cc1ccccc1)N1C(=O)/C(=C/C(Cl)=C/c2ccc([N+](=O)[O-])cc2)SC1=S (centres unmarked)      67.4

Exercise: Find the recorded CC50 belonging to `O=C1NC(=S)S/C1=C\C(Cl)=C\c1ccc([N+](=O)[O-])cc1` and report it.
Key: 35.4

====

tested on: A549/ATCC; test: cells; settings: Homo sapiens, A549, 48 h, read-out: LC50
quantity.kind: CC50

The examples below pair each entry with its known result.
> print(dat)
                                   compound  quantity.kind  measured
1  O=C1/C(=C/C(Cl)=C/c2ccc([N+](=O)[O-])cc2)SC(=S)N1c1ccc(O)cc1 [Compound 2f]           CC50  > 100 µM
2  O=C(O)C(Cc1ccccc1)N1C(=O)/C(=C/C(Cl)=C/c2ccc([N+](=O)[O-])cc2)SC1=S (centres unmarked) [Compound 2j]           CC50  > 100 µM

Exercise: Field request: CC50 | item: O=C1NC(=S)S/C1=C\C(Cl)=C\c1ccc([N+](=O)[O-])cc1 [Compound 2b]
Key: > 50 µM

Exercise: Which CC50 value is on record for O=C1/C(=C/C(Cl)=C/c2ccc([N+](=O)[O-])cc2)SC(=S)N1/N=C\C(Cl)=C\c1ccc([N+](=O)[O-])cc1 [Compound 2c] ?
Key: 96.1 µM

Exercise: For the compound O=C(O)CCN1C(=O)/C(=C/C(Cl)=C/c2ccc([N+](=O)[O-])cc2)SC1=S [Compound 2h] , what CC50 is on record?
Key: > 100 µM

====

// 786-0 GI50 records
// note: answer is a bare numeric in µM

> print(dat)
                                   compound  quantity.kind  measured
1  O=C1NC(=S)S/C1=C\C(Cl)=C\c1ccc([N+](=O)[O-])cc1 [Compound 2b]           GI50       9.4

Exercise: Entry under review: O=C1/C(=C/C(Cl)=C/c2ccc([N+](=O)[O-])cc2)SC(=S)N1c1ccc(O)cc1 [Compound 2f] . Reported GI50?
Key: 2.04

Exercise: Given the entry O=C(O)C(Cc1ccccc1)N1C(=O)/C(=C/C(Cl)=C/c2ccc([N+](=O)[O-])cc2)SC1=S (centres unmarked) [Compound 2j] , report its measured GI50.
Key: 2.1

Exercise: Dear colleague, I am looking for the recorded GI50 of the following compound: O=C1/C(=C/C(Cl)=C/c2ccc([N+](=O)[O-])cc2)SC(=S)N1/N=C\C(Cl)=C\c1ccc([N+](=O)[O-])cc1 [Compound 2c]
Key: 12.1

Exercise: # query: GI50 of entry O=C(O)CCN1C(=O)/C(=C/C(Cl)=C/c2ccc([N+](=O)[O-])cc2)SC1=S [Compound 2h]
Key: 1.13

====

Below, each entry is listed alongside its reported CC50.
test system: U251; assay: cells; conditions: Homo sapiens, U-251, 48 h, read-out: LC50

Sample records with CC50:
> print(dat)
                                   compound  system.name  measured
1  O=C1/C(=C/C(Cl)=C/c2ccc([N+](=O)[O-])cc2)SC(=S)N1c1ccc(O)cc1 [Compound 2f]         U251   38.9 µM
2  O=C1/C(=C/C(Cl)=C/c2ccc([N+](=O)[O-])cc2)SC(=S)N1/N=C\C(Cl)=C\c1ccc([N+](=O)[O-])cc1 [Compound 2c]         U251   65.8 µM
3  O=C(O)CCN1C(=O)/C(=C/C(Cl)=C/c2ccc([N+](=O)[O-])cc2)SC1=S [Compound 2h]         U251  > 100 µM

Exercise: Form field: reported CC50 of O=C1NC(=S)S/C1=C\C(Cl)=C\c1ccc([N+](=O)[O-])cc1 [Compound 2b]
Key: 22.1 µM

Exercise: What does the record list as CC50 for O=C(O)C(Cc1ccccc1)N1C(=O)/C(=C/C(Cl)=C/c2ccc([N+](=O)[O-])cc2)SC1=S (centres unmarked) [Compound 2j] ?
Key: 7.21 µM

====

test system: UO-31; experiment: NCI DTP 60 cell line screen, SRB; details: UO-31 (Renal Cancer), 48 h, SRB
quantity.kind: TGI
Give your result as the value with the unit written after it.

Check out these entries, answers already filled in.
> print(dat)
                                   molecule  quantity.kind  measured
1  O=C1/C(=C/C(Cl)=C/c2ccc([N+](=O)[O-])cc2)SC(=S)N1/N=C\C(Cl)=C\c1ccc([N+](=O)[O-])cc1            TGI   32.2 µM
2  O=C(O)CCN1C(=O)/C(=C/C(Cl)=C/c2ccc([N+](=O)[O-])cc2)SC1=S            TGI   2.43 µM
3  O=C(O)C(Cc1ccccc1)N1C(=O)/C(=C/C(Cl)=C/c2ccc([N+](=O)[O-])cc2)SC1=S (centres unmarked)            TGI   3.10 µM
4  O=C1/C(=C/C(Cl)=C/c2ccc([N+](=O)[O-])cc2)SC(=S)N1c1ccc(O)cc1            TGI   3.98 µM

Now take the following molecule into account.
Exercise: Provide the documented TGI with UO-31 as the system for `O=C1NC(=S)S/C1=C\C(Cl)=C\c1ccc([N+](=O)[O-])cc1`
Key: 21.8 µM

====

# Lookup of reported GI50 keyed by entry
test system: Colon Cancer subpanel
Report as a plain number; the unit nM is understood.

> print(dat)
                                   compound  units  measured
1  O=C(O)CCN1C(=O)/C(=C/C(Cl)=C/c2ccc([N+](=O)[O-])cc2)SC1=S [Compound 2h]     nM       458

# ---- query compound ----
Exercise: Give the reported GI50 for O=C1/C(=C/C(Cl)=C/c2ccc([N+](=O)[O-])cc2)SC(=S)N1c1ccc(O)cc1 [Compound 2f] (system: Colon Cancer subpanel).
Key: 1840

====

test system: Renal Cancer subpanel; assay: cells; conditions: Renal Cancer panel mean
// reported MG_MID, TGI for each item listed
The reply should be a number in µM, with the unit left off.

Solved cases below.
> print(dat)
                                   compound            system.name  quantity.kind  units  measured
1  O=C1/C(=C/C(Cl)=C/c2ccc([N+](=O)[O-])cc2)SC(=S)N1c1ccc(O)cc1  Renal Cancer subpanel    MG_MID, TGI     µM      24.1
2  O=C(O)CCN1C(=O)/C(=C/C(Cl)=C/c2ccc([N+](=O)[O-])cc2)SC1=S  Renal Cancer subpanel    MG_MID, TGI     µM      4.81
3  O=C1/C(=C/C(Cl)=C/c2ccc([N+](=O)[O-])cc2)SC(=S)N1/N=C\C(Cl)=C\c1ccc([N+](=O)[O-])cc1  Renal Cancer subpanel    MG_MID, TGI     µM      43.3
4  O=C1NC(=S)S/C1=C\C(Cl)=C\c1ccc([N+](=O)[O-])cc1  Renal Cancer subpanel    MG_MID, TGI     µM      18.7

Now examine the next entry.
Exercise: Which value of MG_MID, TGI has been reported for O=C(O)C(Cc1ccccc1)N1C(=O)/C(=C/C(Cl)=C/c2ccc([N+](=O)[O-])cc2)SC1=S (centres unmarked) in the records?
Key: 27.8
